- target: TDP-43 (Homo sapiens, UniProt Q13148 1-414)
- Sequence (Q13148 whole entry): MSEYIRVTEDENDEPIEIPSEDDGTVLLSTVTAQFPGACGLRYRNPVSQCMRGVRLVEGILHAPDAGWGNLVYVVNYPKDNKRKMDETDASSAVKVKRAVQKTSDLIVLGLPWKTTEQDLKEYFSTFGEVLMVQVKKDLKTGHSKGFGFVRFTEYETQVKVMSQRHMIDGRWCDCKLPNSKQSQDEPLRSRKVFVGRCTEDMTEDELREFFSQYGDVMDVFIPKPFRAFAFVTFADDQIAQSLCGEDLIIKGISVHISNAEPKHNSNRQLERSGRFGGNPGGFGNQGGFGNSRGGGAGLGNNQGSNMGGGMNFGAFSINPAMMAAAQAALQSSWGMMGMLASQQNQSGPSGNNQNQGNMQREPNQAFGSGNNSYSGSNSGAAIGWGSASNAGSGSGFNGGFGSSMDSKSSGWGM
- measurement notes: RNA Bind-n-Seq with designed 260-mer pool; 25 mM Tris-HCl, 150 mM KCl, 3 mM MgCl2, BSA (printed 500 mg/mL), 20 units/mL SUPERase IN; pH not stated; 500 nM RNA pool, 1 h, 4 C; TDP-43 5, 50, 500 nM; high values mean tight binding
- run conditions: protein: recombinant; tags: SBP (GST cleaved off with PreScission; pGEX-GST-SBP)
The full ranking holds about 9,900 sequences; the median of “r (bound/input frequency ratio)” is about 0.7, and the highest 2% start at about 6.5. This is one part of a sample in which the highest values are shown more often than they occur.

# binder, binding signal
data = [
    ("ENSMUSG00000058297.291|Spock2|95:100 (ssRNA) RNA: GGGAGUUCUACAGUCCGACGAUCGCUUCGAUAUCCGCAUGCUAAGAGAGAGAGAGAAAGAGAGAGAGAAUGAGAGAGAAUGAGAGAGAGAAUACCCGAGGGCCACCCUGAUGCCCAGGAAGAGUGAGGGCAGCCCCCACACACGUGGAAGAGGCUGGGCAGCUAGCUACUGGGGACCUUGUGCUGAGGCUUCCAGGACAAAGCCCCAGUCUGGCUCUCCCCCAGCCUCUCAGGGGCACUGGCUGGUCACAUCCACUGAGUAUUGAUCGGUUGGACUUUAGGGAAGAGCCUCCUCCUUCCCAUUCUCUUGCGGUCGCACUAGUGUGGAAUUCUCGGGUGUCAAGG", "8.71 R (bound/input frequency ratio)"),
    ("ENSMUSG00000043670.328|Diras1 (ssRNA) RNA: GGGAGUUCUACAGUCCGACGAUCGCUUCGAUAUCCGCAUGCUAUAGCCAGCCCAGGGCCCCCACAGCUGCCACCUGCUCCCAAGCCCCGGGAGUGGCUCCUGGCUGGACAGGGGGUCACAGCCCUUUCUCAGGGACACACCCUGAUAGCACAAUCUCUGGGCCACCCCAGGCUUCUCCUGGCUGGCCUUGCCCAUCCUGGGGAGAACCGGGCUGGGUGGCAGGGGAGGCCGGAGCCCACCCUGGCUGCUGGCCAACCUGCCCAGGCAUCUCUGGUGCUGGGGACCCCGCCAGGCCUCGCUUGCCUCUUGCGGUCGCACUAGUGUGGAAUUCUCGGGUGUCAAGG", "0.177 R (bound/input frequency ratio)"),
]
